Measured target: T1, human IL12Rβ2, cell-expressed (human, UniProt Q99665 24-862)
T1 sequence (looked up): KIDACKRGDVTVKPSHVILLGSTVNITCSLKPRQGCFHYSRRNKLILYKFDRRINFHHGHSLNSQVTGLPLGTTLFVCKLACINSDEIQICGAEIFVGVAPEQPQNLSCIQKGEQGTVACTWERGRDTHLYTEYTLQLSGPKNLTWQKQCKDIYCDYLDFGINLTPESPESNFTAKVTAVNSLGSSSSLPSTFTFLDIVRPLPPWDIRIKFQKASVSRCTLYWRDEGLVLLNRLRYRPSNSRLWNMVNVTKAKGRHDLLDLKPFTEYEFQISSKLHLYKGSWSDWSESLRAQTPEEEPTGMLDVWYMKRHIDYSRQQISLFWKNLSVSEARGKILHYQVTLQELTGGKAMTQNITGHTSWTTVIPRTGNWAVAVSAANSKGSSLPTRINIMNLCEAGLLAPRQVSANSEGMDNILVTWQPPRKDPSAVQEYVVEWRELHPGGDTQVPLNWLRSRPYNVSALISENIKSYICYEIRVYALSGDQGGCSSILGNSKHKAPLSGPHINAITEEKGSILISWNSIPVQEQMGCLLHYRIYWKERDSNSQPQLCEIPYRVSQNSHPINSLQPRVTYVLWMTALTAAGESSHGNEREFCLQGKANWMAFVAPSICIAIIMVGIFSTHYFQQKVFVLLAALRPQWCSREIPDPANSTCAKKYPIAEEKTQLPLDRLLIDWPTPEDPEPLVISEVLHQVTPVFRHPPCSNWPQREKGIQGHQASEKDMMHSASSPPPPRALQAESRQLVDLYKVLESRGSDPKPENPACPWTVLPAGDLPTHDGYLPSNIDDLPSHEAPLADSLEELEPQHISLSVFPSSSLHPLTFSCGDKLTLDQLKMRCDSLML
Assay explanation: cell-based or functional assay
Observed property: fold ctrl, IFNγ release, T cells D839 (fold)
Reply with just the number (in fold).

Read the entry IL12Rb2#2-35GS-CD4#8 (bispecific antibody, defined by its make-up) EVQLVESGGRLVQAGDSLRLSCAASGRTFTSYRMGWFRQAPGKEREFVSALRWSSGNIDYTYYADSVKGRFSISGDYAKNTVYLQMNSLKAEDTAVYYCAASTRWGVMESDTEYTSWGQGTLVTVSSGGGGSGGGGSGGGGSGGGGSGGGGSGGGGSGGGGSEVQLVESGGGSVQPGGSLTLSCGTSGRTFNVMGWFRQAPGKEREFVAAVRWSSTGIYYTQYADSVKSRFTISRDNAKNTVYLEMNSLKPEDTAVYYCAADTYNSNPARWDGYDFRGQGTLVTVSS and write its reported fold ctrl, IFNγ release, T cells D839.
1130
